Label label 1 when melting point is strictly below 200 °C; at or above that, label label 0.

Field: example entries. Status: answers known.
compound	classification
c1ccc(-c2cc3ccccc3cn2)cc1	label 1
Cc1ccc(N2CSc3nnc(-c4ccc([N+](=O)[O-])cc4)n3C2)cc1	label 0
CCCCCCCCC(=O)OCC	label 1
O=C1C(=C2c3ccccc3C(=O)C2c2cc(Cl)c([N+](=O)[O-])cc2[N+](=O)[O-])C(=O)c2ccccc21 (centres undefined)	label 0
OC(Cc1ccccc1)C(Cc1ccccc1)=NNc1ccc(Br)cc1 (centres undefined)	label 1

Now, please, on to the next compound.
stdin: Answer whether the compound "Cc1c(C2(c3cc(C(C)C)c(O)c(CN(CC(=O)O)CC(=O)O)c3C)OC(=O)c3ccccc32)cc(C(C)C)c(O)c1CN(CC(=O)O)CC(=O)O" has melting point strictly less than 200 °C
stdout: label 1

* * *

Listing of recorded melting point by entry.
Express your answer in °C, writing the number without its unit.

// known answers, use as guide
molecule	melting point [°C]
CC(CCC(=O)O)C1CCC2C3C(=O)CC4CC5(CCC4(C)C3CC(=O)C12C)OCCO5 (stereo unspecified)	222
Cn1c(=O)c(C2=NNC(=O)C2=NNc2cccc(Br)c2)c(O)c2ccccc21	240
CON=C(C)c1cccc(Oc2nc(OC)cc(OC)n2)c1C(=O)OC	107

Moving on to the next molecule.
stdin: Give recorded melting point. "COc1ccc(C#N)c(F)c1F"
stdout: 84

* * *

attributeMeasured: melting point (°C)
Give a bare numeral; the unit °C is implied.

stdin: Name the recorded melting point of the compound listed here: "O=C(Cc1ccccc1)OC(=O)Cc1ccccc1"
stdout: 73.3

stdin: Please supply the value of reported melting point for the item "O=C(Nc1ccc(Cl)cc1)c1cc(Br)ccc1O"
stdout: 240

stdin: Provide only the value of recorded melting point for CCC(c1ccc(O)cc1)C(CC)c1ccc(O)cc1 (centres undefined)
stdout: 187

stdin: Look up and state reported melting point for "NC(=O)Cc1ccccc1"
stdout: 157

stdin: Give reported melting point value for "CC(C)(C)c1ccc(S(=O)(=O)Cl)cc1"
stdout: 82

stdin: Input "CCNC(N)=O" , output reported melting point.
stdout: 92.5

stdin: Identify measured melting point associated with "COc1ccc(NCC(=O)Nc2ccc(OC)cc2)cc1"
stdout: 132

stdin: Given the compound CC1(C)C2CC3C(c4ccccc4)(C2=C(c2ccccc2)c2ccccc2)C31C (centres undefined) , write its reported melting point.
stdout: 164

stdin: Given the compound "O=C(O)c1ccccc1C1c2ccc(O)cc2Oc2cc(O)ccc21" , write its reported melting point.
stdout: 126

stdin: Quote melting point reported for "Cc1cccc(Cc2ccccc2)c1" please.
stdout: -28

stdin: Output measured melting point for this item: "Cn1c(=O)c(C2=NNC(=O)C2=NNc2ncccn2)c(O)c2ccccc21"
stdout: 302

stdin: Supply reported melting point belonging to this compound: CCC(C)c1ccccc1OC(=O)NC (centres undefined)
stdout: 31.5

* * *

Quick reference: melting point of the listed items.
Express your answer in °C, writing the number without its unit.

Example results:
compound	observedResult
COc1cc(F)ccc1C=O	61
O=C(O)c1ccc([N+](=O)[O-])cc1F	174
Cc1cc(C)n2nc(N)c(/N=N/c3cccc([N+](=O)[O-])c3)c2n1	263

stdin: Consider the compound "O=C(C=Cc1ccccc1)NCCO" and give its recorded melting point.
stdout: 101

stdin: Quickly give me recorded melting point for "CCOC(=O)c1cnc(SC)nc1Cl"
stdout: 62

stdin: Note melting point for the compound shown: "Cc1nc(Nc2ncc(C(=O)Nc3c(C)cccc3Cl)s2)cc(N2CCN(CCO)CC2)n1"
stdout: 283

stdin: Look up melting point of "O=C(O)c1ccc(C(F)(F)F)cc1C(=O)O" and report it.
stdout: 151

stdin: Using known records, supply melting point for OCC1(O)COC(O)(CO)CO1 (stereo not drawn)
stdout: 79

stdin: Output melting point of "CC(C)(C)[Si](C)(C)Cl"
stdout: 88

stdin: Give the reported value of melting point for this record: FC(F)(F)OC(F)(I)C(F)(F)F (stereo not drawn)
stdout: 44

* * *

This section presents compounds with their documented melting point values.
Report the value in °C with no unit label.

compound	observedResult
CS(=O)(=O)OCCCNCCCOS(C)(=O)=O	116
CCCCCCN(CCCCCC)C1=NC(=Cc2ccccc2)C(=O)N1c1ccccc1	76

stdin: For the compound COC(=O)C1=C(C)NC(=O)N(C=O)C1c1ccccc1 (configuration not stated) , give its reported melting point.
stdout: 236

stdin: Identify measured melting point associated with "CC(C)(CCC(=O)O)C(=O)O"
stdout: 84

* * *

Recorded melting point for the following compounds
Reply with just the number (in °C).

stdin: Assign melting point to the following record: COc1cc(C2c3cc4c(cc3C(OC3OC5COC(c6cccs6)OC5C(O)C3O)C3COC(=O)C23)OCO4)cc(OC)c1O (stereo unspecified)
stdout: 244

stdin: Using known records, supply melting point for "Cc1cccc(NN=C2C(=O)NN=C2C(F)(F)F)c1"
stdout: 155

stdin: Return melting point (reported value) for this compound: "Cc1ccc([N+](=O)[O-])cc1O"
stdout: 118

stdin: Query melting point for "CC(=O)C(C(C)=O)C(c1ccc(C)o1)c1ccc(C)o1"
stdout: 60

* * *

attributeMeasured: melting point (°C)
Report the value in °C with no unit label.

Worked cases, melting point given:
smilesRepr	unitString	melting point
Nc1ccc2[nH]c(C(F)(F)F)nc2c1	°C	188
Nc1ccc([N+](=O)[O-])cc1Cl	°C	108

stdin: Provide melting point value for the following molecule: "C(=C(c1ccccc1)c1ccccc1)c1ccccc1"
stdout: 72.5

* * *

Rule for this label: Y means melting point is less than 100 °C; N means melting point is at least 100 °C.

Study these solved cases before continuing.
molecule	classification
NC(=O)CS(=O)C(c1ccccc1)c1ccccc1 (configuration not stated)	N
CCC1(CC)OC(=O)C2CCC1(C)OC2(C)C (configuration not stated)	Y

Okay, next one:
stdin: Is 100 °C strictly greater than the molecule's reported melting point? molecule: "O=Cc1cc(F)c(O)cc1F"
stdout: N

* * *

Listing: melting point of selected compounds
Value expressed in °C; do not type the unit.

The examples below pair each entry with its known result.
compound	melting point (°C)
Cn1c(-c2ccccc2)cc2ccccc21	99
CC(C)CC=CC(C(=O)O)C1=CCC2(C)C(CCC3C4CCC(O)C4(C)CCC32)C1 (stereo unspecified)	200
Cc1ccc(Oc2ccc(Br)cc2)nn1	120
Brc1c2ccccc2c(Br)c2ccccc12	226

stdin: Look up and state reported melting point for "O=Cc1cccc2ccccc12"
stdout: 33.5

* * *

# melting point values compiled below
Number only, in °C; omit the unit.

Answered examples (7):
compound	melting point [°C]
COc1cc(C[N+](=O)[O-])ccc1OCc1ccccc1	153
COc1ccc(C(=O)c2ccc(Cl)cc2Cl)cc1OC	128
COc1ccc2c(c1)C(=O)CC(c1ccccc1)O2 (stereo not drawn)	142
CNc1c(F)c(F)c(-c2c(F)c(F)c(F)c(F)c2F)c(F)c1F	72
N#CCN1CCCCC1	25
CCCCCCC(O)CCC (stereo not drawn)	-11
O=C1CCc2ccccc2CC1	30

Pending compound:
stdin: Respond only with melting point recorded for "CCN(CC)c1ccc(C(C)=O)cc1"
stdout: 48

* * *

attributeMeasured: melting point (°C)
Expressed in °C, but write only the number.

Illustrative cases are given below, each with its answer.
compound	melting point [°C]
CC(C)C/C(Cc1ccccc1)=N\NC(N)=O	89
Nc1ccc(C(=O)O)nc1	218
O=C(O)Cc1ccc(CO)cc1	133
CC(=O)C(=Cc1ccccc1)C(=O)OC1CC(C)CCC1C(C)C (stereo unspecified)	133
C=CCNC(N)=O	85

stdin: Identify measured melting point corresponding to "OCc1csc(-c2ccc(C(F)(F)F)cc2)n1"
stdout: 107

stdin: Return the recorded melting point value; entry: Cc1ccc2oc(CCC(C)(O)c3ccccc3)c(-c3ccc(C)o3)c2c1 (stereo unspecified)
stdout: 85

stdin: Give the reported melting point for this compound. "Cn1c(N)cc(=O)[nH]c1=O"
stdout: 300

stdin: # return recorded melting point for entry "FC(F)OC(F)F"
stdout: -123

* * *

Values of melting point strictly less than 80 °C map to Yes, and values of at least 80 °C map to No.

molecule	classification
CC(C)OP(=O)(CCP(=O)(OC(C)C)OC(C)C)OC(C)C	Yes
CCCN(CCCl)c1c([N+](=O)[O-])cc(C(F)(F)F)cc1[N+](=O)[O-]	Yes
Cc1cccc(N/N=C(\C#N)c2nc(-c3ccc(Cl)cc3)cs2)c1C	No
CCC(CO)NCCNC(CC)CO (configuration not stated)	No
COc1c(C(C)C)oc2cc3oc(=O)ccc3cc12	No

stdin: Identify whether the molecule "CCOCn1c(-c2ccc(Cl)cc2)c(C#N)c(Br)c1C(F)(F)F" records melting point below 80 °C.
stdout: No

* * *

Reported melting point is given for each of the following compounds.
Write the answer as a number in °C, unit excluded.

compound	unitString	observedResult
COc1cc(N)ccc1[N+](=O)[O-]	°C	127
CCCCCCCCC1CCCCC1	°C	-20
O=[N+]([O-])c1ccc(I)c([N+](=O)[O-])c1	°C	89

stdin: Output melting point of "Nc1c(Cl)cc(C(F)(F)F)cc1Br"
stdout: 31

stdin: Consider the compound CC1(C)OC2(C)CCC1C(=O)OC2(c1ccccc1)c1ccccc1 (configuration not stated) . State its measured melting point.
stdout: 134
